- assayed.system: B-RAF G466V (Homo sapiens, UniProt P15056, G466V)
- Construct: expressed in transfected cells; host or cells: T-Rex 293 cells (Invitrogen #R71007)
- Sequence (P15056 whole entry G466V): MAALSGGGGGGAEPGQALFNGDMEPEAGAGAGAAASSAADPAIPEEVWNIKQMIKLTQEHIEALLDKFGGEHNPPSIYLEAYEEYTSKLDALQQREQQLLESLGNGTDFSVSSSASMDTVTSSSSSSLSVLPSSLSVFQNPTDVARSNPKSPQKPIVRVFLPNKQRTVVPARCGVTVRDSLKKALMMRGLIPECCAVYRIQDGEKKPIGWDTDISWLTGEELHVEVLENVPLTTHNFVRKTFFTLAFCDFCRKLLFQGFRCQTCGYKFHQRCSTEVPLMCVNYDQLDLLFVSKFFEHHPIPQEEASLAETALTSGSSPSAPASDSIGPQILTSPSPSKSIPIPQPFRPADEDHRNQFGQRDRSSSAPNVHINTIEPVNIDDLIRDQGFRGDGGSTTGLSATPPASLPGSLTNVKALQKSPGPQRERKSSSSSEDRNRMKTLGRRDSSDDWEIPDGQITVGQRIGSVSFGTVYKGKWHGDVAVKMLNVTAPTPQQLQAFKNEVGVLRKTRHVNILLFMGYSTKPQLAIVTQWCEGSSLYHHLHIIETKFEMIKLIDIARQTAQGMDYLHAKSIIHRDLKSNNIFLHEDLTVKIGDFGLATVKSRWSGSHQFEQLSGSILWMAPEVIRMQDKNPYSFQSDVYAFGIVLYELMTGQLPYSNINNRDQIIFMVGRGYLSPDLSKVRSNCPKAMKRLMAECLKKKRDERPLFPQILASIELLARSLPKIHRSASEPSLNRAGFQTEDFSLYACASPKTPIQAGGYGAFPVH
- assay.procedure: Target protein degradation, assay D: T-Rex 293 cells, HA-BRAF_G466V, 384 well format
- Format: cell-based
- details: Assay D, T-Rex 293 HA-BRAF_G466V cells, 24 hours, Examples 83-269
Consider the following compounds; for each one, report its DC50.

Provide the documented DC50 with B-RAF G466V (Homo sapiens, UniProt P15056, G466V) as the system for N#Cc1c(NS(=O)(=O)N2CC[C@@H](F)C2)ccc(F)c1Oc1ccc2ncn(-c3ccc(N4CCN(CC5CC6(C5)CN(c5ccc7c(c5)CN([C@H]5CCC(=O)NC5=O)C7=O)C6)CC4)cc3)c(=O)c2c1
0.001 to 0.01 µM

Consider next the compound N#Cc1c(NS(=O)(=O)N2CC[C@@H](F)C2)ccc(F)c1Oc1ccc2ncn(-c3cccc(C4CCN(CC5CCN(c6ccc7c(c6)CN([C@H]6CCC(=O)NC6=O)C7=O)CC5)C4)c3)c(=O)c2c1 (single isomer, unassigned) [Example 259] in the same way.
0.001 to 0.01 µM

Consider next the compound N#Cc1c(NS(=O)(=O)N2CC[C@@H](F)C2)ccc(F)c1Oc1ccc2ncn(-c3ccc(N4CCN(CC5CCN(c6ccc7c(c6)CN(C6CCC(=O)NC6=O)C7=O)CC5)CC4)nn3)c(=O)c2c1 (some centres unmarked) in the same way.
0.01 to 0.03 µM

Consider next the compound N#Cc1c(NS(=O)(=O)N2CC[C@@H](F)C2)ccc(F)c1Oc1ccc2ncn(-c3ccc(C4CCN(CC5CN(c6ccc7c(c6)CN([C@H]6CCC(=O)NC6=O)C7=O)C5)CC4)cc3)c(=O)c2c1 in the same way.
0.001 to 0.01 µM

Further cases:
Provide the documented DC50 with B-RAF G466V (Homo sapiens, UniProt P15056, G466V) as the system for CCN(C)S(=O)(=O)Nc1ccc(F)c(Oc2ccc3ncn(-c4ccc(N5CCN(CC6CCN(c7ccc8c(c7)CN(C7CCC(=O)NC7=O)C8=O)CC6)CC5)cc4)c(=O)c3c2)c1C#N (centres unmarked)
0.001 to 0.01 µM
